experiment: NCI Yeast Anticancer Drug Screen. Data for the mec2-1 strain (AID 157); details: S. cerevisiae mec2-1 strain, at 50.0 µM, active compounds read high
About 79,000 compounds went through this panel and 15% of them were active in at least one assay; those are over-represented in the sample as a whole.
For each record, write down the corresponding growth inhibition.
# output: bare number, implied unit %

compound COC(=O)C1CCC(=O)N1CN(C(C)=O)c1ccccc1 (configuration not stated) , growth inhibition observed: 8.6

compound C=C1C(c2ccccc2)C(c2ccccc2)=C(C)C(c2ccccc2)=CN1C(=O)c1ccccc1 (configuration not stated) , growth inhibition observed: 8.7

compound COC(=O)c1c(C(=O)OC)c(C(c2ccccc2)c2ccccc2)n(-c2ccccc2)c1Cl , growth inhibition observed: -21.1

compound Cc1cc(O)c2c(c1)C(=O)c1c(-c3ccc(O)c4c3C(=O)c3c(O)c(C)cc(O)c3C4=O)ccc(O)c1C2=O , growth inhibition observed: -19.8

compound CC1(CCl)Nc2ccccc2C(=O)N1c1ccc(F)cc1 (configuration not stated) , growth inhibition observed: -21.9

compound N#Cc1cc2c3ccccc3ncc2c2ccccc12 , growth inhibition observed: 16.4

compound c1ccc2c(c1)oc1ccc3nsnc3c12 , growth inhibition observed: -7.45

---

Assay: NCI Yeast Anticancer Drug Screen. Data for the rad50 strain (AID 155);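 note: 0% = growth of vehicle-only cultures of the same strain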
Details: S. cerevisiae rad50 strain growth inhibition; at 50.0 µM
Method: Growth inhibition of yeast strains with defined genetic alterations is measured as a screen for potential anti-cancer activity. Selected strains with alterations in DNA damage repair or cell cycle control were exposed to compounds and growth inhibition was measured relative to vehicle treated controls. The strain used in this assay is rad50
The panel holds about 79,000 compounds, 15% with a hit somewhere; the sample as a whole holds those more often. Active and inactive are the calls of the source. No stated cut-off is given here; in the data, active means growth inhibition above about 70%; inactive means the rest.
Answer with one of the outcomes t for active, f for inactive

Please indicate how the test categorized O=C1c2c(O)cccc2C(C(=O)CCCCC(=O)C2c3cccc(O)c3C(=O)c3c(O)cccc32)c2cccc(O)c21 .
f

Please indicate how the test categorized SCCCCN1CCCCC1 .
f

Please indicate how the test categorized CCN(CC)CCN(C(=O)c1ccc(F)cc1)c1ccccc1N .
f

Please indicate how the test categorized CC(C)CC(C#N)C(=O)O (configuration not stated) .
f

Please indicate how the test categorized COC1OC(OC)c2cc([N+](=O)[O-])ccc21 (configuration not stated) .
f

Please indicate how the test categorized CCCCC(CC)COC(=O)CSC#N (configuration not stated) .
f

Please indicate how the test categorized CC(=O)Nc1ccc(C2CC(c3ccc([N+](=O)[O-])cc3)=Nc3ccccc3S2)cc1 (configuration not stated) .
f

Please indicate how the test categorized CC1=NCCN1CCN .
f

Please indicate how the test categorized COC1=C(NCCc2ccccc2)C(=O)C(OC)=C(NCCc2ccccc2)C1=O .
f

Please indicate how the test categorized CN(C)c1nc2ccc(Cl)cc2c(=O)[nH]1 .
f

Please indicate how the test categorized N#C/C=C\c1ccc(F)cc1 .
f

Please indicate how the test categorized COC(=O)c1cc(C)c2c3ccccc3n(C)c2c1C(=O)OC .
f

Please indicate how the test categorized CCCCCCC(=O)c1ccc2ccccc2c1O .
f

Please indicate how the test categorized Nc1ncnc2nc(I)[nH]c12 .
f

Please indicate how the test categorized Cc1nc2ccccc2c(=O)n1NC(=O)c1ccccn1 .
f

Please indicate how the test categorized NC(=O)NC(=O)Cc1ccc(N)cc1 .
f

Please indicate how the test categorized C1=NCCN=Cc2ccccc2O/N=N/Oc2ccccc21 .
f

Please indicate how the test categorized CC1=C(\C=C/C(C)=C/C=C/C(C)=C/C=N/NC(=O)c2cccnc2)C(C)(C)CCC1 .
f

Please indicate how the test categorized O=C(O)c1c(O)c(O)cc2ccccc12 .
f

Please indicate how the test categorized CCCCCCc1c(N)nc(N)[nH]c1=O .
f

Please indicate how the test categorized CN(C)c1nc2ccccc2[nH]1 .
f

Please indicate how the test categorized CCC(=O)C1(N2CCOCC2)CCN(CCCC(=O)c2ccc(F)cc2)CC1 .
f

Please indicate how the test categorized CCSC(C#N)C(C)=O (configuration not stated) .
f

Please indicate how the test categorized CCCCOCCOC(=O)Nc1cccc(Cl)c1 .
f

Please indicate how the test categorized CCOC(=O)C(C)(C(C)=O)c1nc(=S)[nH]c(=S)[nH]1 (configuration not stated) .
f

Please indicate how the test categorized O=C1NC(c2ccccc2)(c2ccccc2)C(=O)N1CNc1ccccn1 .
f

Please indicate how the test categorized O=C(c1ccc(Cl)cc1)N(C(=S)N1CCN(c2ccccc2)CC1)c1ccccc1 .
f

Please indicate how the test categorized COc1cc(C=O)cc(Br)c1O .
f

Please indicate how the test categorized O=C(O)C1=C(c2ccccc2)C=C(c2ccccc2)C1 .
f

Please indicate how the test categorized O=S(=O)(O)c1cccc2cccc(Nc3ccccc3)c12 .
f

Please indicate how the test categorized COc1ccccc1CCCO .
f

Please indicate how the test categorized CCC(C)C(NN)C(=O)O (configuration not stated) .
f

Please indicate how the test categorized N#CCCCCN1CCCCC1 .
f

Please indicate how the test categorized COc1cc(-c2c(C#N)c(OC)[nH]c(=O)c2C#N)cc(OC)c1OC .
f

Please indicate how the test categorized [Cl][Pt+2][Cl].[NH-]CC(C[NH-])(Cc1ccccc1)Cc1ccccc1 .
f

Please indicate how the test categorized CNC(=O)n1cnc2ccccc21 .
f

Please indicate how the test categorized COc1cc(CNCCO)cc(OC)c1 .
f

Please indicate how the test categorized O=C1c2ccccc2-c2ccc(-c3ccc4c5c(cccc35)C(=O)c3ccccc3-4)c3cccc1c23 .
f

Please indicate how the test categorized C[N+](C)([O-])CCNC(=O)c1cccc2cc3ccccc3nc12 .
f

Please indicate how the test categorized Clc1ccc(OCc2nnc3n2N=C(c2ccccc2)CS3)cc1 .
f

Please indicate how the test categorized CCOc1cc(C(=O)O)cc(OCC)n1 .
f

Please indicate how the test categorized CCNc1ncc2nc(CC(=O)OC)c(=O)n(CC)c2n1 .
f

Please indicate how the test categorized C(=Nc1cccc2ccccc12)Nc1cccc2ccccc12 .
f

Please indicate how the test categorized CC(C)(C)NC(=O)NCC1CCCC1NC(=O)NC(C)(C)C (configuration not stated) .
f

Please indicate how the test categorized COc1ccc(OC)c2c3c([nH]c12)C(=O)Nc1nc(N)nc(N)c1C3 .
f

Please indicate how the test categorized Nc1nc(N)nc(-c2cc(Br)c(N)c(Br)c2)n1 .
f

Please indicate how the test categorized COc1ccc([C@@]23Oc4cc(OC)cc(OC)c4[C@]2(O)[C@H](O)[C@H](C(=O)N(C)C)[C@H]3c2ccccc2)cc1 .
t

The measured values listed here are drawn from PubChem BioAssay (NCI).
